# MEASURED TARGET: human IL-6 (mature hIL-6) (human, UniProt P05231 30-212)
# Sequence (P05231 30-212): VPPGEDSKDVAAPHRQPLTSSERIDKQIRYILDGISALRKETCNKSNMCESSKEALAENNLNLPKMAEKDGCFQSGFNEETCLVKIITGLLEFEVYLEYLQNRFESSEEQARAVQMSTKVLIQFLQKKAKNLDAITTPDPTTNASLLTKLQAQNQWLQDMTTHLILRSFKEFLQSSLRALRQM
# PROTOCOL DETAILS: cell-based or functional assay
MEASURE: IC50 (nM), STAT3-luc reporter gene assay
Reply numerically in nM, unit not repeated.

Polypeptide_55 (VHH) VHH: EVQLVESGGGLVQPGGSLKLSCTTSGRRFSEYAVGWFRQAPGKEREFVADIGEQADNTWYAESVLGRFTISRDDAKNTVYLEMDGLKPEDTAVYYCAADKYGVGGNAQGYYDSWGQGTQVTVSS ... 0.278
Polypeptide_60 (VHH) VHH: EVQLVESGGGLVQPGGSLKLSCTTSGRRFSEYAVGWFRQAPGKEREFVADIGEQAENTWYAESVLGRFTISRDDAKNTVYLEMDSLKPEDTAVYYCAADKYGVGGNAQGYYDSWGQGTQVTVSS ... 0.057
Polypeptide_59 (VHH) VHH: EVQLVESGGGLVQPGGSLKLSCTTSGRRFSEYAVGWFRQAPGKEREFVADIGEQAENTWYAESVLGRFTISRDDAKNTVYLEMNGLKPEDTAVYYCAADKYGVGGNAQGYYDSWGQGTQVTVSS ... 0.043

Task item: Suppose we examine the binder Polypeptide_53 (VHH) VHH: EVQLVESGGGLVQPGGSLKLSCTTSGRRFSSYAVGWFRQAPGKEREFVADIGEQAENTWYAESVLGRFTISRDDAKNTVYLEMDGLKPEDTAVYYCAADKYGVGGNAQGYYDSWGQGTQVTVSS ; what IC50 (nM), STAT3-luc reporter gene assay value has been reported?
Reply: 0.05

Task item: Suppose we examine the binder Polypeptide_58 (VHH) VHH: EVQLVESGGGLVQPGGSLKLSCTTSGRRFSEYAVGWFRQAPGKEREFVADIGEQAENTWYAESVLGRFTISRDNAKNTVYLEMDGLKPEDTAVYYCAADKYGVGGNAQGYYDSWGQGTQVTVSS ; what IC50 (nM), STAT3-luc reporter gene assay value has been reported?
Reply: 0.047

Task item: Suppose we examine the binder Polypeptide_50 (VHH) VHH: ELQLVESGGGLVQPGGSLKLSCTTSGRRFSEYAVGWFRQAPGKEREFVADIGEQAENTWYAESVLGRFTISRDDAKNTVYLEMDGLKPEDTAVYYCAADKYGVGGNAQGYYDSWGQGTQVTVSS ; what IC50 (nM), STAT3-luc reporter gene assay value has been reported?
Reply: 0.049

Task item: Suppose we examine the binder Polypeptide_49 (VHH) VHH: QVQLVESGGGLVQPGGSLKLSCTTSGRRFSEYAVGWFRQAPGKEREFVADIGEQAENTWYAESVLGRFTISRDDAKNTVYLEMDGLKPEDTAVYYCAADKYGVGGNAQGYYDSWGQGTQVTVSS ; what IC50 (nM), STAT3-luc reporter gene assay value has been reported?
Reply: 0.051

Task item: Suppose we examine the binder Polypeptide_62 (VHH) VHH: EVQLVESGGGLVQPGGSLKLSCTTSGRRFSEYAVGWFRQAPGKEREFVADIGEQAENTWYAESVLGRFTISRDDAKNTVYLEMDGLKPEDTAVYYCAADKYGVGGGAQGYYDSWGQGTQVTVSS ; what IC50 (nM), STAT3-luc reporter gene assay value has been reported?
Reply: 0.13
